Hey, just so you know, these numbers are from ChEMBL document CHEMBL1128703.

# Tested on: LoVo
# PROTOCOL_NOTES: Inhibitory activity against human colon adenocarcinoma cell line LoVo.
# Format: functional, cell-based
READOUT_TYPE: pIC50
Bear in mind: pIC50 is minus log10 of a mol/L concentration; give just that figure.

Q) Item "O=C1c2ccccc2C(=O)c2c(NCCN3CCCCC3)nnc(NCCN3CCCCC3)c21" with LoVo - pIC50?
A) 6.59

Q) Item "Cl.O=C1c2ccccc2C(=O)c2c(NCCCO)nnc(NCCCO)c21" with LoVo - pIC50?
A) 7.12
